Exercise: for every item that follows, state its recorded Na.
Species on record: Rattus norvegicus
assay: Open TG-GATES - Regimen: Single
Assay type: toxicity, organism-based, Sprague-Dawley
Design: regimen Single, gender Male, age 6 weeks
measurement_parameters: in vivo, po, 1000 mg/kg, 9 h, tissue Plasma, route gavage, dose level High
Kindly provide the numeric value in meq/L only, without the unit symbol.

The recorded Na for entry Cc1nnc2n1-c1ccc(Cl)cc1C(c1ccccc1Cl)=NC2 [TRIAZOLAM] equals 141

The recorded Na for entry COC(=O)C1=C(C)NC(C)=C(C(=O)OC)C1c1ccccc1[N+](=O)[O-] [NIFEDIPINE] equals 134.6

The recorded Na for entry CN/C(=N/CCSCc1nc[nH]c1C)NC#N [CIMETIDINE] equals 142

The recorded Na for entry O=C(OC[C@H]1O[C@@H](OC(=O)c2cc(O)c(O)c(OC(=O)c3cc(O)c(O)c(O)c3)c2)[C@H](OC(=O)c2cc(O)c(O)c(OC(=O)c3cc(O)c(O)c(O)c3)c2)[C@@H](OC(=O)c2cc(O)c(O)c(OC(=O)c3cc(O)c(O)c(O)c3)c2)[C@@H]1OC(=O)c1cc(O)c(O)c(OC(=O)c2cc(O)c(O)c(O)c2)c1)c1cc(O)c(O)c(OC(=O)c2cc(O)c(O)c(O)c2)c1 [TANNIC ACID] equals 137

The recorded Na for entry CNC(=C[N+](=O)[O-])NCCSCc1ccc(CN(C)C)o1 [RANITIDINE] equals 140.8
